The reported numbers originate from patent US20160215306A1.

test: Pharmacokinetic profiling: plasma levels after single IV or oral administration; format: in vivo, CD1 male mice; conditions: male, CD1, mouse, plasma; piceid 10 mg/kg IV, 0.25 h; read-out: Piceid (Detection of piceid) in plasma, IV
Readout kind: concentration at 0.25 h

- OC[C@H]1O[C@@H](Oc2cc(O)cc(C=Cc3ccc(O)cc3)c2)[C@H](O)[C@@H](O)[C@@H]1O [Piceid, resveratrol 3-O-β-D-glucopyranoside]: 2830 ng/mL

====

experiment: Pharmacokinetic profiling: plasma levels after single IV or oral administration; assay type: in vivo, CD1 male mice; settings: male, CD1, mouse, plasma, intravenous, 10 mg/kg
Readout kind: concentration at 0.25 h

- Oc1ccc(C=Cc2cc(O)cc(O)c2)cc1 [Resveratrol, 3,5,4′-trihydroxy-stilbene]: 40 ng/mL

====

experiment: Pharmacokinetic profiling: plasma levels after single IV or oral administration; type: in vivo, CD1 male mice; conditions: male, CD1, mouse, plasma, intravenous, 10 mg/kg
Readout kind: concentration at 0.5 h (ng/mL)

- Oc1ccc(C=Cc2cc(O)cc(O)c2)cc1 [Resveratrol, 3,5,4′-trihydroxy-stilbene]: 4

====

assay: Pharmacokinetic profiling: plasma levels after single IV or oral administration; format: in vivo, CD1 male mice; settings: male, CD1, mouse, plasma; piceid 10 mg/kg IV, 0.5 h; read-out: Piceid (Detection of piceid) in plasma, IV
Readout kind: concentration at 0.5 h (ng/mL)

- OC[C@H]1O[C@@H](Oc2cc(O)cc(C=Cc3ccc(O)cc3)c2)[C@H](O)[C@@H](O)[C@@H]1O [Piceid, resveratrol 3-O-β-D-glucopyranoside]: 320
